// data source = PubChem BioAssay

- measuredTarget: GTPase HRas (Homo sapiens) (UniProt P01112)
- Sequence (P01112 whole entry, looked up): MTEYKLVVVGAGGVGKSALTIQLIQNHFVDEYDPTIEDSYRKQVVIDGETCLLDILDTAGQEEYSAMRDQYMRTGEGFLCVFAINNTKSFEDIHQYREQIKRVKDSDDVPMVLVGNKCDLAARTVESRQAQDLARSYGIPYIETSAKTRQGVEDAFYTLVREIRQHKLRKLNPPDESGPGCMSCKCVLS
- testSummary: Ras wt fluorescent GTP loading blockade – biochemical, wildtype, multiplex bead flow cytometry, dose response (AID 1335)
- runParameters: bead-based flow cytometry, Bodipy-GTP binding to GST-Ras; at 100 µM (top of the series) unless noted
Measured GTP binding, percent of control, listed per entry.
Answer with a number only, understood to be in %.

COc1cccc(NC(=O)CSc2nc3c([nH]c4ccccc43)c(=O)n2C)c1    92.1
O=C1/C(=C\c2cccnc2)Sc2ccccc21    62.4
CCN(CC)c1ccc(/C=c2\sc3nnc(-c4ccccc4Cl)n3c2=O)cc1    128
Cc1ccc(Sc2nnc(-c3ccccc3)cc2C#N)cc1    178
O=c1n(Cc2ccc(Cl)cc2)c2sc3c(c2c2ncnn12)CCCC3    126
Cc1ccc(N=Nc2c(N)[nH]n3c(=O)cc(C)nc23)cc1    61
Nc1[nH]c(=S)nc2nc(-c3ccccc3)c(-c3ccccc3)nc12    81.4
O=C(Nc1ccccc1C(=O)N1CCOCC1)C1CCC(=O)N1C1CCCC1 (stereo unspecified)    62.7
COCCOC(=O)c1c(C)oc2ccc(OC(=O)c3ccc4c(c3)OCO4)cc12    83.9
Cn1nc(C(=O)Nc2cccnc2)c2ccccc2c1=O    111

Next compound, GTP binding, percent of control to be filled in.
input: Look at this compound and give its reported GTP binding, percent of control. `COC(=O)c1cccc(NC(=O)c2nn(C)c(=O)c3ccccc23)c1`
output: 155
